// provenance: ChEMBL document CHEMBL5390234

experimental_protocol: Lipophilicity, logD of compound at pH 7.4
Type: physicochemical
experimental_context: buffer
Known logD of a selection of molecules
measured_quantity: logD

chemical_structure=Nc1cc(NCCn2cccn2)c2ccccc2n1 measured_quantity=logD numeric_value=0.5
chemical_structure=CCNc1nc(N)nc2cc(-n3cccn3)ccc12 measured_quantity=logD numeric_value=1.8
chemical_structure=Nc1cc(NCCn2cccn2)c2ccc(-n3cccn3)cc2n1 measured_quantity=logD numeric_value=1.7
chemical_structure=CCNc1nc(N)nc2cc(-n3cccn3)cnc12 measured_quantity=logD numeric_value=2.1
chemical_structure=c1cnn(CCNc2ccnc3cc(-n4cccn4)ccc23)c1 measured_quantity=logD numeric_value=1.8
chemical_structure=CCNc1nc(N)nc2nc(-n3cccn3)ccc12 measured_quantity=logD numeric_value=2
chemical_structure=CCNc1nc(N)nc2nc(-c3cc[nH]n3)ccc12 measured_quantity=logD numeric_value=1.4
chemical_structure=CCNc1nc(N)nc2cc(-c3cc[nH]n3)ccc12 measured_quantity=logD numeric_value=1.8
chemical_structure=CCNc1nc(N)nc2nc(-c3ccc[nH]c3=O)ccc12 measured_quantity=logD numeric_value=0.8
chemical_structure=Nc1nc(NCCn2cccn2)c2ccc(-c3cc[nH]n3)nc2n1 measured_quantity=logD numeric_value=1.4
chemical_structure=CCN(Cc1nc2c(N)nc3cc(-c4cc[nH]n4)ccc3c2[nH]1)C(C)=O measured_quantity=logD numeric_value=1.8
chemical_structure=CCNc1cc(N)nc2cc(-n3cccn3)ccc12 measured_quantity=logD numeric_value=1.5

###

experimental_protocol: Apparent permeability of compound across apical to basolateral in human Caco-2 cells at 10 uM
Format: ADME, cell-based
Papp A→B at 10 µM values by entry
measured_quantity: Papp A→B at 10 µM (×10⁻⁶ cm/s)

chemical_structure=CCN(Cc1nc2c(N)nc3cc(-c4cc[nH]n4)ccc3c2[nH]1)C(C)=O numeric_value=0.6
chemical_structure=Nc1cc(NCCn2cccn2)c2ccc(-n3cccn3)cc2n1 numeric_value=2.3
chemical_structure=Nc1nc(NC2CC2)c2ccc(-c3cc[nH]n3)nc2n1 numeric_value=3.7
chemical_structure=CC1(Nc2nc(N)nc3nc(-c4cc[nH]n4)ccc23)CC1 numeric_value=4.2
chemical_structure=CC1(Nc2nc(N)nc3cc(-c4cc[nH]n4)ccc23)CC1 numeric_value=9

###

experimental_protocol: Oral bioavailability in mouse at 30 mg/kg
Assay type: ADME, organism-based
experimental_context: in vivo
measured_quantity: bioavailability

chemical_structure=CC1(Nc2nc(N)nc3nc(-c4cc[nH]n4)ccc23)CC1 result=70%

###

experimental_protocol: AUC (0 to t) in mouse plasma at 30 mg/kg, po
Type: ADME, organism-based
Parameters: dose 30 mg/kg, route po
measured_quantity: AUC(0-t) (µM·h)

chemical_structure=CC1(Nc2nc(N)nc3nc(-c4cc[nH]n4)ccc23)CC1 units_label=µM·h numeric_value=7.5
